# subject.of.test: Full-length inactive AKT1 (Homo sapiens, UniProt P31749)
# Sequence (P31749 whole entry): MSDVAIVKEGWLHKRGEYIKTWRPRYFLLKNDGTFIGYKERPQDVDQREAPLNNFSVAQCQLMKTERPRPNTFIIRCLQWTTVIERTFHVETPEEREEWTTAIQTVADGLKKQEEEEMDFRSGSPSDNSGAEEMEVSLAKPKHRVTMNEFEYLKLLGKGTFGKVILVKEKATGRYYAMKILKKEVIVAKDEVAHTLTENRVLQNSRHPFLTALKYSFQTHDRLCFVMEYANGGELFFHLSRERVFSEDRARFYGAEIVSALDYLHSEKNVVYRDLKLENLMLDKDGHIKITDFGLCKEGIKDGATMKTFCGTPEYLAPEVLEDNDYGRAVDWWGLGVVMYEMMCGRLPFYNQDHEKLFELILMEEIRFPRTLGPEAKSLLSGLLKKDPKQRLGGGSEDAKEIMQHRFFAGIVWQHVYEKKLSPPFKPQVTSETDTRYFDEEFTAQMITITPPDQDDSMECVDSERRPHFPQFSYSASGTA
# test.method.notes: Inactive Akt Alpha Screen Assay
# Assay type: biochemical
# experimental.setup: values not marked with "*"; read-out: Akt1 IC50, (AlphaScreen)
result.type: IC50 (nM)

Before answering, review these 3 worked examples.
[[record]]
compound = "COc1cc(-c2ccc3nc(-c4cccnc4N)n(-c4ccc(C5(N)CCC5)cc4)c3n2)ccc1N"
unit_info = "nM"
reported_result = 2

[[record]]
compound = "Nc1ncccc1-c1nc2ccc(-c3ccsc3)nc2n1-c1ccc(CNC(=O)c2cccc(F)c2)cc1"
unit_info = "nM"
reported_result = 24

[[record]]
compound = "C[S+]([O-])c1ccc(-c2ccc3nc(-c4cccnc4N)n(-c4ccc(CNC(=O)c5cccc(F)c5)cc4)c3n2)cc1 (stereo not shown)"
unit_info = "nM"
reported_result = 36


I. CC(=O)Nc1ccc(-c2cnc3c(c2)nc(-c2cccnc2N)n3-c2cccc(CNC(=O)c3cccc(F)c3)c2)cc1
II. CN(C)C(=O)c1ccc(-c2ccc3nc(-c4cccnc4N)n(-c4ccc(C5(N)CCC5)cc4)c3n2)cc1
III. Nc1ncccc1-c1nc2cc(Br)cnc2n1-c1ccc(CNS(=O)(=O)c2cccc3cccnc23)cc1
IV. Nc1ccccc1-c1ccc2nc(-c3cccnc3N)n(-c3ccc(CNC(=O)c4cccc(F)c4)cc3)c2n1
Inquiry: Rank ascending by IC50. As an answer, provide the labels arranged in the order called for.
Reply text: II, IV, III, I
(II: 21 nM, IV: 91 nM, III: 620 nM, I: 2830 nM)

###

# subject.of.test: Full-length inactive AKT1 (Homo sapiens, UniProt P31749)
# test.method.notes: Inactive Akt Alpha Screen Assay
# Assay type: biochemical
# experimental.setup: values not marked with "*"; read-out: Akt1 IC50, (AlphaScreen)
pIC50: −log10 of the molar value.
result.type: pIC50

Consider the reported pIC50 for these compounds:
[[record]]
compound_string = "Nc1ncccc1-c1nc2cc(C(F)(F)F)cnc2n1-c1ccc(CNC(=O)c2cccc(F)c2)cc1"
result_type = "pIC50"
reported_result = 6.44

[[record]]
compound_string = "COc1ccc(Nc2ccc3nc(-c4cccnc4N)n(-c4ccc(CNC(=O)c5ccccc5)cc4)c3n2)cc1"
result_type = "pIC50"
reported_result = 6.22


A. Nc1ncccc1-c1nc2ccc(-c3cccc(C(=O)O)c3)nc2n1-c1ccc(C2(N)CCC2)cc1
B. COC(=O)C1(c2ccc(-n3c(-c4cccnc4N)nc4cc(-c5ccccc5)cnc43)cc2)CCC1
Inquiry: # query: argmin of pIC50 over A and B Select an item and report its label.
Reply text: B
(B: 6.44, A: 8.42)

I. COc1cc(-c2ccc3nc(-c4cccnc4N)n(-c4ccc(C5(N)CCC5)cc4)c3n2)ccc1F
II. Nc1ncccc1-c1nc2ccc(-c3cccnc3)nc2n1-c1ccc(CC(=O)Nc2ccccc2)cc1
III. Nc1ncccc1-c1nc2ccc(-c3ccncc3)nc2n1-c1ccc(CNC(=O)c2ccccc2)cc1
Inquiry: Please rank these compounds by pIC50 in descending order. The response must list the labels following the requested ordering.
Reply text: I, II, III
(I: 8.24, II: 7.34, III: 6.89)

###

# subject.of.test: Full-length inactive AKT1 (Homo sapiens)
# test.method.notes: Inactive Akt Alpha Screen Assay
# Assay type: biochemical
# experimental.setup: values not marked with "*"; read-out: Akt1 IC50, (AlphaScreen)
result.type: IC50 (nM)

[[record]]
compound_string = "Cc1cnc2c(c1)nc(-c1cccnc1N)n2-c1ccc(CNC(=O)c2ccc(C)c(C)c2)cc1"
result_type = "IC50"
unit_info = "nM"
reported_result = 160


1. Nc1ncccc1-c1nc2cc(-c3cccnc3)cnc2n1-c1ccc(CNS(=O)(=O)C2CC2)cc1
2. Nc1ncccc1-c1nc2ccc(-c3cccc(NS(=O)(=O)C4CC4)c3)nc2n1-c1ccc(C2(N)CCC2)cc1
Inquiry: Please state the entry with greater IC50 among 1 and 2 . I would appreciate it if you answered with the label of your choice.
Reply text: 1

A. Cc1ccnc2c1nc(-c1cccnc1N)n2-c1ccc(CNC(=O)c2ccccc2)cc1
B. CS(=O)(=O)c1cccc(-c2ccc3nc(-c4cccnc4N)n(-c4ccc(C5(N)CCC5)cc4)c3n2)c1
C. Nc1ncccc1-c1nc2cc(Br)cnc2n1-c1ccc(CC(=O)Nc2cccc(F)c2)cc1
D. CCOC(=O)Cc1ccc(-n2c(-c3cccnc3N)nc3ccc(-c4cccc(NC(C)=O)c4)nc32)cc1
Inquiry: Arrange by IC50, high to low. Reply format: the labels, ordered as requested.
Reply text: D, A, C, B
(D: 320 nM, A: 210 nM, C: 130 nM, B: 5 nM)

###

# subject.of.test: Full-length inactive AKT1 (Homo sapiens, UniProt P31749)
# test.method.notes: Inactive Akt Alpha Screen Assay
# Assay type: biochemical
# experimental.setup: values not marked with "*"; read-out: Akt1 IC50, (AlphaScreen)
pIC50: −log10 of the molar value.
result.type: pIC50

Answered cases to consult:
[[record]]
compound_string = "Cc1cccc(S(=O)(=O)NCc2ccc(-n3c(-c4cccnc4N)nc4cc(Br)cnc43)cc2)c1"
reported_result = 6.40

[[record]]
compound_string = "CC(=O)Nc1ccc(NC(=O)Cc2ccc(-n3c(-c4cccnc4N)nc4cc(-c5cccnc5)cnc43)cc2)cc1"
reported_result = 7.66

[[record]]
compound_string = "Cc1cnc2c(c1)nc(-c1cccnc1N)n2-c1ccc(CNC(=O)c2ccc(N(C)C)cc2)cc1"
reported_result = 7.37

[[record]]
compound_string = "Cc1ccnc(NC(=O)c2ccc(-n3c(-c4cccnc4N)nc4cccnc43)cc2)c1"
reported_result = 6.28


P. COc1ccc(-c2ccc3nc(-c4cccnc4N)n(-c4ccc(C5(N)CCC5)cc4)c3n2)cc1O
Q. Cc1ccc2nc(-c3cccnc3N)n(-c3ccc(CNC(=O)c4cccc(F)c4)cc3)c2n1
Inquiry: Hey, between P and Q which has a smaller measured pIC50? Bench note: the answer is the label of the chosen record.
Reply text: Q

a. Nc1ncccc1-c1nc2ccc(-c3ccc(O)cc3)nc2n1-c1ccc(CNC(=O)c2cccc(F)c2)cc1
b. COc1ccc(NC(=O)c2ccc(-n3c(-c4cccnc4N)nc4cccnc43)cc2)cc1F
c. CC(=O)Nc1cccc(C(=O)NCc2ccc(-n3c(-c4cccnc4N)nc4ccc(C)nc43)cc2)c1
d. Cc1cnc2c(c1)nc(-c1cccnc1N)n2-c1ccc(CNC(=O)c2cccnc2)cc1
Inquiry: Output the entries ranked by pIC50 from maximum down to minimum. Use the labels to give the requested order.
Reply text: c, a, d, b
(c: 7.55, a: 6.92, d: 6.23, b: 5.60)

a. CNC(=O)c1cccc(-c2ccc3nc(-c4cccnc4N)n(-c4ccc(C5(N)CCC5)cc4)c3n2)c1
b. Cn1cnc(S(=O)(=O)NCc2ccc(-n3c(-c4cccnc4N)nc4cc(Br)cnc43)cc2)c1
Inquiry: Identify the entry with the smaller pIC50: a or b . The response must carry the label of the picked entry.
Reply text: b
(b: 6.36, a: 8.34)

###

# subject.of.test: Full-length inactive AKT1 (Homo sapiens, UniProt P31749)
# test.method.notes: Inactive Akt Alpha Screen Assay
# Type: biochemical
# experimental.setup: values not marked with "*"; read-out: Akt1 IC50, (AlphaScreen)
result.type: IC50 (µM)

Some compounds with recorded IC50:
[[record]]
compound_string = "CC(C)(C)c1ccc(C(=O)NCc2ccc(-n3c(-c4cccnc4N)nc4cccnc43)cc2)cc1"
result_type = "IC50"
reported_result = 0.099

[[record]]
compound_string = "CC(C)c1ccc(C(=O)NCc2ccc(-n3c(-c4cccnc4N)nc4cc(-c5cccnc5)cnc43)cc2)cc1"
result_type = "IC50"
reported_result = 0.14

[[record]]
compound_string = "Nc1ncccc1-c1nc2cc(Br)cnc2n1-c1ccc(CNS(=O)(=O)c2ccsc2)cc1"
result_type = "IC50"
reported_result = 0.19

[[record]]
compound_string = "Nc1ncccc1-c1nc2ccc(-c3cccc(C(=O)NCCO)c3)nc2n1-c1ccc(C2(N)CCC2)cc1"
result_type = "IC50"
reported_result = 0.0028

[[record]]
compound_string = "Cc1cnc2c(c1)nc(-c1cccnc1N)n2-c1ccc(CNC(=O)c2ccc(Cl)c(Cl)c2)cc1"
result_type = "IC50"
reported_result = 0.23


A. Nc1ncc(-c2ccc3nc(-c4cccnc4N)n(-c4ccc(CNC(=O)c5cccc(F)c5)cc4)c3n2)cn1
B. CNC(=O)Cc1ccc(-n2c(-c3cccnc3N)nc3ccc(-c4cccc(NC(C)=O)c4)nc32)cc1
Inquiry: Task for the reader: decide whether A or B has the larger IC50. Your answer should be the label of the entry you select.
Reply text: B

###

# subject.of.test: Full-length inactive AKT1 (Homo sapiens, UniProt P31749)
# test.method.notes: Inactive Akt Alpha Screen Assay
# Format: biochemical
# experimental.setup: values not marked with "*"; read-out: Akt1 IC50, (AlphaScreen)
result.type: IC50 (µM)

As a guide, the following entries are already answered.
[[record]]
compound_string = "Cc1cnc2c(c1)nc(-c1cccnc1N)n2-c1ccc(CNC(=O)c2ccc(F)cc2)cc1"
unit_info = "µM"
reported_result = 0.24

[[record]]
compound_string = "Nc1ncccc1-c1nc2cc(-c3ccccc3)cnc2n1-c1ccc(C2(C(=O)O)CCC2)cc1"
unit_info = "µM"
reported_result = 0.25

[[record]]
compound_string = "COc1ccc(-c2ccc3nc(-c4cccnc4N)n(-c4ccc(C5(N)CCC5)cc4)c3n2)cc1OC"
unit_info = "µM"
reported_result = 0.0049

[[record]]
compound_string = "CCCCNC(=O)Cc1ccc(-n2c(-c3cccnc3N)nc3ccc(-c4cccc(NC(C)=O)c4)nc32)cc1"
unit_info = "µM"
reported_result = 0.035

[[record]]
compound_string = "Cc1cnc2c(c1)nc(-c1cccnc1N)n2-c1ccc(CNC(=O)c2cccc(F)c2F)cc1"
unit_info = "µM"
reported_result = 0.093


I. CC(=O)Nc1cccc(-c2ccc3nc(-c4cccnc4N)n(-c4ccc(CC(=O)Nc5ccc6nc(C)ccc6c5)cc4)c3n2)c1
II. Nc1ncccc1-c1nc2ccc(-c3cccc(CO)c3)nc2n1-c1ccc(CNC(=O)c2cccc(F)c2)cc1
Inquiry: Hey, which is lower on measured IC50, I or II ? // output: label of the selected item
Reply text: I
(I: 0.012 µM, II: 0.021 µM)

The measurements presented in this section are drawn from patent US8501770B2.
